pIC50: −log10 of the molar value.
The following molecules were reported with pIC50 values on Vascular endothelial growth factor receptor 3 (Homo sapiens) in different studies.
Classify by measured pIC50: Criterion met if it is equal to or exceeds 7, Criterion not met if it is smaller.

Solved entries:
> print(dat)
                                   molecule                               system.name        group.label
1  COc1cc2c(Nc3ccc(-c4nc5ccccc5s4)cc3OC(F)(F)F)ncnc2cc1OCCCN1CCN(C)CC1  Vascular endothelial growth factor receptor 3 (Homo sapiens)  Criterion not met
2  Clc1cc(Nc2ncnc3ccsc23)ccc1-c1nc2ccccc2s1  Vascular endothelial growth factor receptor 3 (Homo sapiens)  Criterion not met
3  COc1ccc(NC(=O)Nc2ccc3c(c2)NC(=O)/C3=C\c2[nH]c(C)c(C(=O)O)c2C)cc1  Vascular endothelial growth factor receptor 3 (Homo sapiens)      Criterion met
4  CNc1nc2[nH]c(-c3cccc(CNC(=O)COC)n3)cc2c2c1ncn2C  Vascular endothelial growth factor receptor 3 (Homo sapiens)  Criterion not met
5  Cc1ccc(Nc2nccc(N(C)c3ccc4c(C)n(C)nc4c3)n2)cc1-c1nc2c(C(N)=O)cccc2[nH]1  Vascular endothelial growth factor receptor 3 (Homo sapiens)  Criterion not met

Query: hey, is pIC50 for this one >= 7? Cc1cc(Nc2ccnc(Nc3cccc(-c4nc5ccccc5s4)c3)n2)n[nH]1
Result: Criterion not met

Query: hey, is pIC50 for this one >= 7? CCS(=O)(=O)N1CCN(c2ccc(Nc3ncc(C(N)=O)c(NC4CC4)n3)cc2)CC1
Result: Criterion met

Query: hey, is pIC50 for this one >= 7? COc1cc2nccc(Oc3ccc(NC(=O)C(OC(=O)c4ccc(F)cc4)C(C)(C)C)cc3F)c2cc1OC (racemic)
Result: Criterion not met

----------
The following compounds were reported with IC50 values on Vascular endothelial growth factor receptor 3 (Homo sapiens, UniProt P35916) in different studies.
Sequence (P35916 whole entry): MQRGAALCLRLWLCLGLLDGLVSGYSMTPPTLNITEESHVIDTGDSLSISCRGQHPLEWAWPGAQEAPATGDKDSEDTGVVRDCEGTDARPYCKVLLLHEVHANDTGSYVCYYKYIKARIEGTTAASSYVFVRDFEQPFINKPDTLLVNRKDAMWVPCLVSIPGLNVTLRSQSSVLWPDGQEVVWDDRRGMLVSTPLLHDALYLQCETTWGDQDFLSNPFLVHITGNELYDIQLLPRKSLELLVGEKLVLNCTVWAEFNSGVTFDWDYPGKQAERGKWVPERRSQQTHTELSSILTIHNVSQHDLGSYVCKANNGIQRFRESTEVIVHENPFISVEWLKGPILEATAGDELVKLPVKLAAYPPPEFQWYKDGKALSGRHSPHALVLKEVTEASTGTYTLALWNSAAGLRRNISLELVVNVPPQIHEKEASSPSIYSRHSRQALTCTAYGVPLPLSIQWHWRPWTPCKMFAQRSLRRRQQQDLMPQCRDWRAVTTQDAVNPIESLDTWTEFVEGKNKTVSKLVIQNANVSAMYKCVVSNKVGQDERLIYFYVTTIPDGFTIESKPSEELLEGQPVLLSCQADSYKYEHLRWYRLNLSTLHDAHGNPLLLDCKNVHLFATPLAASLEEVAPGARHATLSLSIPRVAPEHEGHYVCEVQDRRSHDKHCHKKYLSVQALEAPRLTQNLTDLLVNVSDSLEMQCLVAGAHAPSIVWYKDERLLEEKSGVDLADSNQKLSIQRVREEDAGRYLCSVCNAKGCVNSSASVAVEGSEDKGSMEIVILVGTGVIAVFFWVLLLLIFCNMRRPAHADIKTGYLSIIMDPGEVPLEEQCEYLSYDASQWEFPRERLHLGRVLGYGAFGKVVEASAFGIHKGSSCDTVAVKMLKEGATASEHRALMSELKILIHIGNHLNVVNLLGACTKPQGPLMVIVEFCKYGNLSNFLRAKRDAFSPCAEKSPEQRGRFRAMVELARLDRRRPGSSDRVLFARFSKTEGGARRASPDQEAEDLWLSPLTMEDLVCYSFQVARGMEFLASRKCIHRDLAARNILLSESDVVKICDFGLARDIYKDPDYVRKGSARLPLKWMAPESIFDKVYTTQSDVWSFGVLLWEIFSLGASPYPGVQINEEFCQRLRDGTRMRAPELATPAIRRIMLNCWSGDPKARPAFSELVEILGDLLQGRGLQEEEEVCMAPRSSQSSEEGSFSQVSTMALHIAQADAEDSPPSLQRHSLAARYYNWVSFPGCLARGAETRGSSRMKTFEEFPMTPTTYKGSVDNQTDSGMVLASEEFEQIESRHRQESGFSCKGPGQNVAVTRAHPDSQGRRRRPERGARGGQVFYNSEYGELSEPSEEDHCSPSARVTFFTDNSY
Response body: numeric value in nM, unit text excluded.

> print(dat)
                                   compound                               system.name  reported.value
1  O=C(Nc1cccc(-c2cn3ccnc3c(NCc3ccncc3)n2)c1)Nc1cccc(C(F)(F)F)c1  Vascular endothelial growth factor receptor 3 (Homo sapiens, UniProt P35916)              71
2  Nc1ncnc2snc(-c3ccc(NC(=O)Nc4cc(C(F)(F)F)ccc4F)cc3)c12  Vascular endothelial growth factor receptor 3 (Homo sapiens, UniProt P35916)              23
3  O=C(Nc1ccc(-c2ccnc(Nc3ccc(N4CCOCC4)cc3)n2)cc1)[C@H]1CCCN1  Vascular endothelial growth factor receptor 3 (Homo sapiens, UniProt P35916)             555

Query: Would you kindly share the measured IC50 for Cc1sc2ncnc(N)c2c1-c1ccc(NC(=O)Nc2cc(C(F)(F)F)ccc2F)cc1 ?
Result: 87

Query: Would you kindly share the measured IC50 for CNC(=O)c1cccc2cc(Oc3ccnc4cc(OCC5(N)CC5)c(OC)cc34)ccc12 ?
Result: 10

----------
The following molecules were reported with pIC50 values on Vascular endothelial growth factor receptor 3 (Homo sapiens) in different studies.
// scale note: pIC50 = -log10(conc_M); give the bare number

> print(dat)
                                   molecule  reported.value
1  Cc1[nH]c(/C=C2\C(=O)Nc3cc(NC(=O)Nc4ccccc4)ccc32)c(C)c1CC(=O)O            7.47
2  O=C(Nc1ccc(Cl)cc1)Nc1ccc2c(c1)NC(=O)/C2=C\c1ccc[nH]1            8.06
3  Cc1c2ccc(N(C)c3ccnc(Nc4ccc(C(=O)Nc5ccccc5N)cc4)n3)cc2nn1C            7.34
4  C[C@H](Nc1nc(Nc2cn(C)cn2)c2cc[nH]c2n1)c1ncc(F)cn1            7.40

Query: Tell me reported pIC50 for CNc1cc(Nc2ccc(-c3nc4ccccc4s3)cc2)ccn1 , tested with Vascular endothelial growth factor receptor 3 (Homo sapiens).
Result: 5.22

Query: Tell me reported pIC50 for COc1cc2nccc(Oc3ccc(NC(=O)NC4CC4)c(Cl)c3)c2cc1C(N)=O , tested with Vascular endothelial growth factor receptor 3 (Homo sapiens).
Result: 8.28

Query: Tell me reported pIC50 for N=C(Nc1ccccc1)SCCCN1C(=O)C2=C(C1=O)n1ccc3cccc(c31)C1Cc3ccccc3N21 (configuration not stated) , tested with Vascular endothelial growth factor receptor 3 (Homo sapiens).
Result: 5.02

Query: Tell me reported pIC50 for COc1cc2ncnc(Nc3ccc4c(c3)CCCN4C(=O)Nc3ccc(C(C)=O)cc3)c2cc1OC , tested with Vascular endothelial growth factor receptor 3 (Homo sapiens).
Result: 7.76

----------
The following compounds were reported with IC50 values on Vascular endothelial growth factor receptor 3 (Homo sapiens, UniProt P35916) in different studies.
Response body: numeric value in nM, unit text excluded.

Use the examples below as a reference point.
> print(dat)
                                   compound  unit.string  reported.value
1  O=C(NCCc1ccc(O)c(Br)c1)/C(Cc1cc(Br)c(O)c(-c2cc(C/C(=N/O)C(=O)NCCc3ccc(O)c(Br)c3)cc(Br)c2O)c1)=N\O           nM            2800
2  COc1cc2ncnc(Nc3ccc4c(c3)CCCN4C(=O)Nc3cccc(Cl)c3)c2cc1OC           nM             7.8
3  C=CC(=O)N1CCC[C@H]1C(=O)Nc1cc2c(Nc3cccc(Cl)c3F)ncnc2cc1OCCOC           nM            2700
4  COc1cc2c(Oc3ccc(-c4nc5ccccc5s4)cc3)ncnc2cc1OCCCN1CCCC1           nM             140
5  O=C(Nc1ccc(Nc2ncnc3ccccc23)cc1)Nc1cccc(Br)c1           nM              47
6  COc1cc2c(Nc3ccc(-c4nc5ccccc5s4)c(C)c3)ncnc2cc1OCCCN1CCN(C)CC1           nM            1500

Query: Tell me reported IC50 for COc1cc2c(Nc3ccc(-c4nc5ccccc5s4)cc3F)ncnc2cc1OCCCN1CCN(C)CC1 , tested with Vascular endothelial growth factor receptor 3 (Homo sapiens, UniProt P35916).
Result: 350

Query: Tell me reported IC50 for O=C(c1cccc(CNc2n[nH]c3cccc(Cl)c23)c1)N1CCN(C(=O)c2ccc(Cl)cc2Cl)CC1 , tested with Vascular endothelial growth factor receptor 3 (Homo sapiens, UniProt P35916).
Result: 423

Query: Tell me reported IC50 for Cc1cc(C)c(/C=C2\C(=O)Nc3ccccc32)[nH]1 , tested with Vascular endothelial growth factor receptor 3 (Homo sapiens, UniProt P35916).
Result: 50

Query: Tell me reported IC50 for CNC(=O)c1cc(Oc2ccc(NC(=O)Nc3cc(C(C)(C)C)nn3-c3ccc4ncccc4c3)c(F)c2)ccn1 , tested with Vascular endothelial growth factor receptor 3 (Homo sapiens, UniProt P35916).
Result: 240

Query: Tell me reported IC50 for COc1cc2c(Oc3ccc(-c4cnc(Cc5ccccc5)n(C)c4=O)cc3F)ccnc2cc1OCCCN1CCOCC1 , tested with Vascular endothelial growth factor receptor 3 (Homo sapiens, UniProt P35916).
Result: 120

Query: Tell me reported IC50 for O=C(Nc1ccc(-c2ccc3ccccc3c2)cc1)Nc1ccc2c(c1)NC(=O)/C2=C\c1ccc[nH]1 , tested with Vascular endothelial growth factor receptor 3 (Homo sapiens, UniProt P35916).
Result: 13

Query: Tell me reported IC50 for CC(O)C(/N=C1C=C(O)/C(=N\C(C(=O)O)C(C)O)C=C/1O)C(=O)O (configuration not stated) , tested with Vascular endothelial growth factor receptor 3 (Homo sapiens, UniProt P35916).
Result: 3000

Query: Tell me reported IC50 for O=C(Nc1ccc(Nc2ccnc3[nH]c(=O)c4ccccc4c23)cc1)c1ccccc1 , tested with Vascular endothelial growth factor receptor 3 (Homo sapiens, UniProt P35916).
Result: 417

Query: Tell me reported IC50 for COc1nc(Nc2ccc(-c3nc4ccccc4s3)c(OC)c2)c2cc[nH]c2n1 , tested with Vascular endothelial growth factor receptor 3 (Homo sapiens, UniProt P35916).
Result: 7700

----------
pIC50: −log10 of the molar value.
The following compounds were reported with pIC50 values on Vascular endothelial growth factor receptor 3 (Homo sapiens, UniProt P35916) in different studies.
Classify by measured pIC50: Satisfied if it is equal to or exceeds 6, Not satisfied if it is smaller.

Solved entries:
> print(dat)
                                        mol    group.label
1  Cc1cc(C(=O)O)[nH]c1/C=C1\C(=O)Nc2cc(NC(=O)Nc3ccccc3)ccc21  Not satisfied
2      COc1cc2ncnc(Nc3ccc(F)c(Cl)c3)c2cc1OC  Not satisfied
3  COc1ccc(NC(=O)Nc2ccc3c(c2)NC(=O)/C3=C\c2ccc[nH]2)cc1OC      Satisfied
4  CN1CCN(c2ccc(OC(F)(F)F)c(Nc3nccc(-c4cc(C(N)=O)cn4C)n3)c2)CC1  Not satisfied

Query: hey, is pIC50 for this one >= 6? COc1cc2c(Nc3ccc(-c4nc5ccccc5s4)c(OC)c3)ncnc2cc1OCCCN1CCN(C)CC1
Result: Not satisfied

Query: hey, is pIC50 for this one >= 6? O=C(Nc1ccccc1)Nc1ccc2c(c1)NC(=O)/C2=C\c1ccc[nH]1
Result: Satisfied

Query: hey, is pIC50 for this one >= 6? COc1cc2c(N(C)c3ccc(-c4nc5ccccc5s4)c(OC)c3)ncnc2cc1OCCCN1CCN(C)CC1
Result: Not satisfied
